Reference source: PubChem BioAssay (NCATS)

- System: KB-3-1
- TEST METHOD NOTES: Cytotoxic Profiling of Annotated Libraries Using Quantitative High-Throughput Screening (AID 1296008); note: % is set by controls: 0 for no effect and ±100 for the full control effect
- TEST SETTINGS: Five cell lines viability, CellTiter-Glo ATP luminescence, 48-72 h; stronger effect = lower value
Inconclusive results are not listed.

MOLECULE | MEASUREMENT UNIT | max response
C=C1CCC(OC(C)=O)C2(C)CC3(O)OC(=O)C(C)=C3CC12 (stereo not drawn) | % | 4.81
C=C1CCC2C(C)(C)CC(=O)CC2(C)C1CCC(C)CCOC(C)=O (stereo not drawn) | % | 5.05
C=C[C@H]1[C@H](O[C@@H]2O[C@H](CO)[C@@H](O)[C@H](O)[C@H]2O)OC=C2C(=O)OCC[C@]21O | % | 0.223
C/C=C/C=C/C=C/C(=O)O[C@@H]1C=C(CO)C(O)(C(=O)O)[C@@]2(C)CCCC(C)(C)[C@H]12 (stereo partly drawn) | % | 0.213
Cc1nn(C)c2c1C(c1ccc(C(F)(F)F)cc1)C(C#N)=C(N)O2 (stereo not drawn) | % | 9.42
CC1(C)CC2C(O)C3=C(CC(C)(O)C2C1)C(=O)OC3O (stereo not drawn) | % | 5.32
CC1(C)CC[C@]2(C(=O)O[C@@H]3O[C@H](CO)[C@@H](O)[C@H](O)[C@H]3O)CC[C@]3(C)C(=CCC4[C@@]5(C)C[C@@H](O)[C@H](O)C(CO)(CO)C5CC[C@]43C)C2[C@@H]1O (stereo partly drawn) | % | 8.19
COc1cccc2c1CCC[C@H]2CN(C)CCc1ccc2ccoc2c1 | % | 4.61
